Target: RXR/PPAR-6 heterodimer (PPARδ) (Homo sapiens, UniProt Q03181)
Sequence (Q03181 1-441): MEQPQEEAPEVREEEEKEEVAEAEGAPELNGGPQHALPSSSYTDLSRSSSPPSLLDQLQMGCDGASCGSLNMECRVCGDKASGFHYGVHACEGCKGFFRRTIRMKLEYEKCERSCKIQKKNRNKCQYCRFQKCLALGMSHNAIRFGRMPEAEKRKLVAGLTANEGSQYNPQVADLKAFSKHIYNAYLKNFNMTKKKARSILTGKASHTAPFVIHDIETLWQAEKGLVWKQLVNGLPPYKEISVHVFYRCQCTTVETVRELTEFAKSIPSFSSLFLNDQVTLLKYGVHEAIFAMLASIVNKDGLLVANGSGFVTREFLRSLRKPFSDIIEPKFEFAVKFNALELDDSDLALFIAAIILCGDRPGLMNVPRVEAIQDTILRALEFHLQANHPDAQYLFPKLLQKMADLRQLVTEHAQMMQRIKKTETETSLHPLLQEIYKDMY
Sequence (P19793 1-462 partner): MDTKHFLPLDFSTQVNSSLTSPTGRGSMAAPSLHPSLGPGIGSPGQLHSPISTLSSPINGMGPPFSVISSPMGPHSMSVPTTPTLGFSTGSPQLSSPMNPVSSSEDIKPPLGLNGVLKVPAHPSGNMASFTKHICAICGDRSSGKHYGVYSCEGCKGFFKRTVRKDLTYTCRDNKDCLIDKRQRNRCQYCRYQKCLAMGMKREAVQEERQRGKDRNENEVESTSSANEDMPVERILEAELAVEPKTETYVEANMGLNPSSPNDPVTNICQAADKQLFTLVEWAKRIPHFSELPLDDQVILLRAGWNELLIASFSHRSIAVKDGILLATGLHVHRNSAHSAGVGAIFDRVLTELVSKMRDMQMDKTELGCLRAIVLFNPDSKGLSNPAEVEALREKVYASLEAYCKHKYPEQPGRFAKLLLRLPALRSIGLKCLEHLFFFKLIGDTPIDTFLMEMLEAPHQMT
Test: PPARδ in vitro reporter gene assay (pGL3-PPRE reporter, PPARδ and RXR plasmids) in L-02 cells
Details: 24 h after compound addition, luciferase corrected by GFP, read-out: EC50 (semi-activating activity) activating PPAR-6
Measurement name: EC50 (nM)

- Compound: "O=C(c1ccc(F)cc1)c1ccccc1NC(Cc1ccc(OCCn2c3ccccc3c3ccccc32)cc1)C(=O)O (single isomer, unassigned; (+)) [Enantiomer 2]"
  Comparison operator: ">"
  Measured result: 10000
- Compound: "O=C(c1ccc(F)cc1)c1ccccc1NC(Cc1ccc(OCCn2c3ccccc3c3ccccc32)cc1)C(=O)O (single isomer, unassigned; (-)) [Enantiomer 1]"
  Comparison operator: "="
  Measured result: 1930
